protocol-summary: reversal of MRP1-mediated doxorubicin resistance, pilot screen, H69AR cells, doxorubicin co-treatment (AID 601)
condition-notes: H69AR cells + 2 uM doxorubicin, CellTiter-Glo, 72 h; at 10 µM; stronger effect = higher value
measurement-type: differential viability (reversal) (%)
// units = %; emit number, no label

Query block: Any idea what differential viability (reversal) was measured for N/C(Cn1nnc(-c2ccccc2)n1)=N\O ?
Result block: 11

Query block: Any idea what differential viability (reversal) was measured for CCn1c(=O)c2cc(S(=O)(=O)NCc3ccccc3)ccc2n(CC)c1=O ?
Result block: -77.1

Query block: Any idea what differential viability (reversal) was measured for O=C1c2cccnc2C(O)N1Cc1ccc(F)cc1 (configuration not stated) ?
Result block: 3.87

Query block: Any idea what differential viability (reversal) was measured for CCCSc1nnc(-c2ccccc2NC(=O)CC)c(=O)[nH]1 ?
Result block: 14.4

Query block: Any idea what differential viability (reversal) was measured for CC1c2nc3ccccc3n2C(CC(=O)NCc2ccccn2)C(=O)N1Cc1ccccc1 (configuration not stated) ?
Result block: 7.24

Query block: Any idea what differential viability (reversal) was measured for Cc1ccc(F)cc1NC(=O)C1CCCN(c2ncccn2)C1 (configuration not stated) ?
Result block: -1.88

Query block: Any idea what differential viability (reversal) was measured for Cc1ccccc1OCCCN1C(=O)C(=O)c2cccc(C)c21 ?
Result block: -16.4

Query block: Any idea what differential viability (reversal) was measured for CCN(CC)c1ccc2c(c1)CCCN2 ?
Result block: -13.2

Query block: Any idea what differential viability (reversal) was measured for CCN(c1ccccc1)S(=O)(=O)c1ccc(F)cc1C ?
Result block: 7.2

Query block: Any idea what differential viability (reversal) was measured for CCCCn1cnc2c(c1=O)c1nc3ccccc3nc1n2Cc1ccc2c(c1)OCO2 ?
Result block: -5.45

Query block: Any idea what differential viability (reversal) was measured for Cc1nc2cc(NC(=O)N3c4ccccc4CC3C)ccc2o1 (configuration not stated) ?
Result block: 8.09

Query block: Any idea what differential viability (reversal) was measured for Cn1c2c(c(=O)[nH]c1=O)C(NC(=O)c1ccco1)(C(F)(F)F)C(=O)N2 (configuration not stated) ?
Result block: 4.25

Source listed as PubChem BioAssay.
